Target: JAK3 (catalytic domain, His-tag) (Homo sapiens, UniProt P52333)
Construct: All four purified enzymes contain only the catalytic domain; His (N); purchased Carna Biosciences, Inc; host or cells: baculovirus expression system
Sequence (P52333 822-1111 limits assumed): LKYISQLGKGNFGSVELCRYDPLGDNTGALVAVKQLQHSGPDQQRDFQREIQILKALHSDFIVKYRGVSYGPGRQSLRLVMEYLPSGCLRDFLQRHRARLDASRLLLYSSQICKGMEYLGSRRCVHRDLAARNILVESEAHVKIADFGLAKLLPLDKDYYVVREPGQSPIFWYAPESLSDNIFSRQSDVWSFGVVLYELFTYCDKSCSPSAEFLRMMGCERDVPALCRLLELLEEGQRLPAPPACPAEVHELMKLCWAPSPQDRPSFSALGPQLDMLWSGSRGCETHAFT
Assay: JAK kinase assay (HTRF, phosphorylation of TK substrate-biotin), JAK3
Type: biochemical
Details: HTRF assay, ATP at Km (2 μM); read-out: JAK3 kinase inhibitory activity (EC50 indicator)
# EC50 values compiled below

Sample records with EC50:
molecule | EC50
O=C(c1ccc(S(=O)(=O)NCc2ccco2)cc1)N1CCN(c2ncnc3[nH]ccc23)CC12CC2 | < 100 nM
Nc1nc(N2CCN(C(=O)c3cnccn3)C3(CC3)C2)c2cc[nH]c2n1 | 100 to 500 nM
O=C([C@H]1CCCc2ccccc21)N1CCN(c2ncnc3[nH]ccc23)CC12CC2 | 100 to 500 nM

INPUT: Could you please provide reported EC50 for `COc1cnc2[nH]ccc2c1N1CCN(C(=O)c2cc3cc(C#N)ccc3[nH]2)C2(CC2)C1` ? Thanks!
OUTPUT: 100 to 500 nM

INPUT: Could you please provide reported EC50 for `N#CC1(C(=O)N2CCN(c3nc(N)nc4[nH]ccc34)CC23CC3)CC1` ? Thanks!
OUTPUT: 100 to 500 nM

INPUT: Could you please provide reported EC50 for `CS(=O)(=O)c1cc(C(=O)N2CCN(c3ncnc4[nH]ccc34)CC23CC3)ccc1F` ? Thanks!
OUTPUT: 100 to 500 nM

INPUT: Could you please provide reported EC50 for `N#CCc1ccc(CC(=O)N2CCN(c3ncnc4[nH]cc(Cl)c34)CC23CC3)cc1` ? Thanks!
OUTPUT: 100 to 500 nM

INPUT: Could you please provide reported EC50 for `Cc1ccc(S(N)(=O)=O)cc1C(=O)N1CCN(c2ncnc3[nH]ccc23)CC12CC2` ? Thanks!
OUTPUT: < 100 nM

====

Molecular target: TYK2 (aa 871-1187, catalytic domain, GST-tag) (Homo sapiens, UniProt P29597)
Construct: JAK1 (aa 850-1154) and TYK2 (aa 871-1187) are expressed with an N-terminally fused GST-tag; GST (N); purchased Carna Biosciences, Inc; host or cells: baculovirus expression system
Sequence (P29597 871-1187): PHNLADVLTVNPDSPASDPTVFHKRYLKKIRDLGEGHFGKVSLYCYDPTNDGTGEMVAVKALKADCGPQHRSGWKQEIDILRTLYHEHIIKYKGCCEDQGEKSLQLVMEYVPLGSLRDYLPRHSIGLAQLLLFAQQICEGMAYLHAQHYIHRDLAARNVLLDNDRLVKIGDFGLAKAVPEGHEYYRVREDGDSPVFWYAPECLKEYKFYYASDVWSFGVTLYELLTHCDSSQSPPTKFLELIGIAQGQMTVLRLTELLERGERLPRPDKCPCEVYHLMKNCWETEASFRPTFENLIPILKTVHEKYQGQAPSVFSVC
Assay: JAK kinase assay (HTRF, phosphorylation of TK substrate-biotin), TYK2
Format: biochemical
Conditions: HTRF assay, ATP at Km (13 μM); read-out: TYK2 kinase inhibitory activity (EC50 indicator)
measuredParameter: EC50

Sample records with EC50:
molecule | EC50
COC(=O)c1cc2c(N3CCN(C(=O)CCC#N)C4(CC4)C3)ncnc2[nH]1 [Example 340] | > 0.5 µM
N#CCCCS(=O)(=O)c1ccc(C(=O)N2CCN(c3ncnc4[nH]ccc34)CC23CC3)cc1 [Example 408] | > 0.5 µM

Proceeding to the next molecule to report its EC50.
INPUT: Give reported EC50 for N#CCc1ccc(CC(=O)N2CCN(c3nc(N)nc4[nH]ccc34)CC23CC3)cc1 [Example 307] (TYK2 (aa 871-1187, catalytic domain, GST-tag) (Homo sapiens, UniProt P29597))
OUTPUT: > 0.5 µM

====

Biological target: JAK3 (catalytic domain, His-tag) (Homo sapiens, UniProt P52333)
Construct: All four purified enzymes contain only the catalytic domain; His (N); purchased Carna Biosciences, Inc; host or cells: baculovirus expression system
Assay: JAK kinase assay (HTRF, phosphorylation of TK substrate-biotin), JAK3
Assay type: biochemical
Conditions: ATP at Km (2 μM); read-out: JAK3 kinase inhibitory activity (EC50 indicator)
pEC50: −log10 of the molar value.
measuredParameter: pEC50

compound | observed
O=C(c1cc2ccccc2s1)N1CCN(c2ncnc3[nH]ccc23)CC12CCCC2 | < 6.30
N#CC1CCN(C(=O)C2(C(=O)N3CCN(c4ncnc5[nH]ccc45)CC34CC4)CC2)C1 (centres unmarked) | < 6.30
N#Cc1ccc(CC(=O)N2[C@@H]3CC[C@@H]2CN(c2ncnc4[nH]ccc24)C3)cc1 | 6.30 to 7.00

INPUT: Could you please provide reported pEC50 for `O=C(c1cccnc1)N1CCN(c2ncnc3[nH]ccc23)CC12CC2` ? Thanks!
OUTPUT: 6.30 to 7.00

INPUT: Could you please provide reported pEC50 for `O=C(c1ccccc1)N1CCN(c2ncnc3[nH]ccc23)CC12CC2` ? Thanks!
OUTPUT: 6.30 to 7.00

INPUT: Could you please provide reported pEC50 for `O=C(Cc1ccccc1)N1[C@@H]2CC[C@H]1CN(c1ncnc3[nH]ccc13)C2` ? Thanks!
OUTPUT: < 6.30

INPUT: Could you please provide reported pEC50 for `N#Cc1ccc(C(F)(F)C(=O)N2CCN(c3ncnc4[nH]ccc34)CC23CC3)cc1` ? Thanks!
OUTPUT: 6.30 to 7.00

INPUT: Could you please provide reported pEC50 for `O=C(Cc1ccncc1)N1[C@@H]2CC[C@@H]1CN(c1ncnc3[nH]ccc13)C2` ? Thanks!
OUTPUT: < 6.30

====

# pEC50 values compiled below
Biological target: JAK3 (catalytic domain, His-tag) (Homo sapiens)
Construct: All four purified enzymes contain only the catalytic domain; His (N); purchased Carna Biosciences, Inc; host or cells: baculovirus expression system
Assay: JAK kinase assay (HTRF, phosphorylation of TK substrate-biotin), JAK3
Type: biochemical
Settings: HTRF assay, ATP at Km (2 μM); read-out: JAK3 kinase inhibitory activity (EC50)
pEC50: −log10 of the molar value.

molecule | assaySystem | pEC50
NS(=O)(=O)c1ccc(NCC(=O)N2CCN(c3ncnc4[nH]ccc34)CC23CC3)cc1 | JAK3 (catalytic domain, His-tag) (Homo sapiens) | 6.30 to 7.00

INPUT: Give reported pEC50 for `O=C(NCCc1ccccc1)N1CCN(c2ncnc3[nH]ccc23)CC12CC2` (JAK3 (catalytic domain, His-tag) (Homo sapiens))
OUTPUT: 6.30 to 7.00

INPUT: Give reported pEC50 for `CN(C)CCC(=O)N1CCN(c2ncnc3[nH]ccc23)CC12CC2` (JAK3 (catalytic domain, His-tag) (Homo sapiens))
OUTPUT: < 6.30

INPUT: Give reported pEC50 for `CCN(CC)S(=O)(=O)N1CCN(c2ncnc3[nH]ccc23)CC12CC2` (JAK3 (catalytic domain, His-tag) (Homo sapiens))
OUTPUT: 6.30 to 7.00

INPUT: Give reported pEC50 for `S=C(c1cc2c(s1)CCC2)N1CCN(c2ncnc3[nH]ccc23)CC12CC2` (JAK3 (catalytic domain, His-tag) (Homo sapiens))
OUTPUT: 6.30 to 7.00

INPUT: Give reported pEC50 for `O=C(OC1CCCC1)N1CCN(c2ncnc3[nH]ccc23)CC12CC2` (JAK3 (catalytic domain, His-tag) (Homo sapiens))
OUTPUT: > 7.00

INPUT: Give reported pEC50 for `CSCCC(=O)N1CCN(c2ncnc3[nH]ccc23)CC12CC2` (JAK3 (catalytic domain, His-tag) (Homo sapiens))
OUTPUT: > 7.00

INPUT: Give reported pEC50 for `O=C(COc1ccccc1)N1CCN(c2ncnc3[nH]ccc23)CC12CC2` (JAK3 (catalytic domain, His-tag) (Homo sapiens))
OUTPUT: > 7.00

INPUT: Give reported pEC50 for `COCCC(=O)N1CCN(c2ncnc3[nH]ccc23)CC12CC2` (JAK3 (catalytic domain, His-tag) (Homo sapiens))
OUTPUT: 6.30 to 7.00

INPUT: Give reported pEC50 for `NS(=O)(=O)c1ccc(OCCC(=O)N2CCN(c3ncnc4[nH]ccc34)CC23CC3)cc1` (JAK3 (catalytic domain, His-tag) (Homo sapiens))
OUTPUT: > 7.00

INPUT: Give reported pEC50 for `S=C(NCc1ccccc1)N1CCN(c2ncnc3[nH]ccc23)CC12CC2` (JAK3 (catalytic domain, His-tag) (Homo sapiens))
OUTPUT: 6.30 to 7.00

INPUT: Give reported pEC50 for `NS(=O)(=O)c1ccc(NCCC(=O)N2CCN(c3ncnc4[nH]ccc34)CC23CC3)cc1` (JAK3 (catalytic domain, His-tag) (Homo sapiens))
OUTPUT: 6.30 to 7.00

INPUT: Give reported pEC50 for `O=C(NC1CCCCC1)N1CCN(c2ncnc3[nH]ccc23)CC12CC2` (JAK3 (catalytic domain, His-tag) (Homo sapiens))
OUTPUT: > 7.00

INPUT: Give reported pEC50 for `CN(C1CCCCC1)S(=O)(=O)N1CCN(c2ncnc3[nH]ccc23)CC12CC2` (JAK3 (catalytic domain, His-tag) (Homo sapiens))
OUTPUT: 6.30 to 7.00

INPUT: Give reported pEC50 for `CCCCNC(=O)N1CCN(c2ncnc3[nH]ccc23)CC12CC2` (JAK3 (catalytic domain, His-tag) (Homo sapiens))
OUTPUT: 6.30 to 7.00

====

# EC50 values compiled below
Molecular target: JAK2 (catalytic domain, His-tag) (Homo sapiens)
Construct: All four purified enzymes contain only the catalytic domain; His (N); purchased Carna Biosciences, Inc; host or cells: baculovirus expression system
Sequence (O60674 849-1124 limits assumed): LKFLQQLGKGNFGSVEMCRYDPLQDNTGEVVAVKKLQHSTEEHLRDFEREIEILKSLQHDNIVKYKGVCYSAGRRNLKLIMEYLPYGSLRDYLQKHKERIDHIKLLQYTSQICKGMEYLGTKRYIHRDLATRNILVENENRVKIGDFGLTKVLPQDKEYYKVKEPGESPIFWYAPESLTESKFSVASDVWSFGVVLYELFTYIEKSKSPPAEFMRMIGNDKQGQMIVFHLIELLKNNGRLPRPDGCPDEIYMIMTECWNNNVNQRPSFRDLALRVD
Assay: JAK kinase assay (HTRF, phosphorylation of TK substrate-biotin), JAK2
Type: biochemical
Conditions: HTRF assay, ATP at Km (4 μM); read-out: JAK2 kinase inhibitory activity (EC50 indicator)

compound | observed
NS(=O)(=O)c1cccc(CC(=O)N2CCN(c3ncnc4[nH]ccc34)CC23CC3)c1 [Example 398] | < 100 nM

INPUT: Could you please provide reported EC50 for CC(=O)Nc1ccc(C(=O)N2[C@@H]3CC[C@@H]2CN(c2ncnc4[nH]ccc24)C3)cc1 [Example 354] ? Thanks!
OUTPUT: < 100 nM
